Values from patent US20220372150A1

# measurementTarget: T1, PDL1-HSA fusion protein composed of PDL1 extracellular domain and human serum albumin (human)
# T1 construct: The entry is the whole fusion: PD-L1 extracellular domain, linker, human serum albumin; also called Human PDL1-HSA; hPDL1-HSA
# T1 sequence (chain, as listed by the source limits assumed): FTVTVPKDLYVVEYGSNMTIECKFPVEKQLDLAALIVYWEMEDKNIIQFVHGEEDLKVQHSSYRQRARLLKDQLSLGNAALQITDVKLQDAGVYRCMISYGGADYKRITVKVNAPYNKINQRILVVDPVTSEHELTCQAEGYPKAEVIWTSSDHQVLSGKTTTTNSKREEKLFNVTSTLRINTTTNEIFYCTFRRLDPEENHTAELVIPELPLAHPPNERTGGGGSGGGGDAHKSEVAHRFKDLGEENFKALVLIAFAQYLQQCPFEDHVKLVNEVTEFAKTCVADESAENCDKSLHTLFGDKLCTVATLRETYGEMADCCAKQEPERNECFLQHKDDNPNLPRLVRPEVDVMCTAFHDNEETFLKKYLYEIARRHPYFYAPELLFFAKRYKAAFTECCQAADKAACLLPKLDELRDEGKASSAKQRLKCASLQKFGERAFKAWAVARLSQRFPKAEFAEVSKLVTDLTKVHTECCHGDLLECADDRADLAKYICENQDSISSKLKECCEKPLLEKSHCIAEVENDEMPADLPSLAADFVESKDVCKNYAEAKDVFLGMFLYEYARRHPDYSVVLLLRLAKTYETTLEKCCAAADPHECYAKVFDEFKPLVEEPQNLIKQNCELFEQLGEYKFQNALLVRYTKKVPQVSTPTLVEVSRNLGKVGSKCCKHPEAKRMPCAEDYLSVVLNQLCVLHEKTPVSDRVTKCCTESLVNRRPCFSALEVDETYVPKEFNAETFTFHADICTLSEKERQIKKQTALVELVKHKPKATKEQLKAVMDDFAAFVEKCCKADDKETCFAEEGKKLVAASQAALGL
# methodDescription: competitive ELISA on coated PDL1-HSA; competitor PD1-Fc (4.8 µg/mL, mixed in equal volume)
# Procedure: PDL1-HSA was coated onto a plate overnight in an amount of 200 ng/well at 4° C., and blocked with 5% skimmed milk powder for 1 hr at room temperature. […] 100 μl was added per well and incubated at 37° C. for 1 hr. After washing three times with PBST, 100 μl of 1:20000 diluted HRP-Goat anti-Human IgG Fc(Novex) was added to each well, and incubated at room temperature for 1 hr. […] The OD value was read at 450 nm, and the half maximal inhibitory concentration (IC50 value) was calculated.
measure: IC50 (µg/mL)
Answers are plain numbers, in µg/mL.

Field: example entries. Status: answers known.
anti-PDL1 single-domain antibody 6F1, histidine-tagged (VHH, not shown: C-terminal histidine tag) VHH: QLQLVESGGGLVQPGGSLRLSCAASGRTFSTHSMHWFRQAPEKERVFVAAINWNGDSTYYADSVKGRFTISRDNSKNTVDLQMNNLKPEDTAVYVCAARPGAPSTIVAMLDYWGQGTQVTVSS : 0.0527
anti-PDL1 single-domain antibody 1G10, histidine-tagged (VHH, not shown: C-terminal histidine tag) VHH: QVQLVESGGGLVQAGGSLRLSCAASGRPFITYAMGWFRQAPGKEREFVAAINWSGSITAYADSVKGRFTISRDNAKNAAYLQMNSLKPDDTAVYYCASKRTAVAPRALNDYDFWGQGTQVTVSS : 0.0628

Parameters: items (list). Returns: IC50 for each item.
1. anti-PDL1 single-domain antibody 1A7, histidine-tagged (VHH, not shown: C-terminal histidine tag) VHH: QLQLVESGGDLVQPGGSLRLSCAASGSIFSANLIDWYRQPPGKQRELVAVISSRGITSYADSVKGRFTISRDNAKNTVYLQMNSLKPEDTAVYYCHLFHTDGLGYWGQGTQVTVSS
2. anti-PDL1 single-domain antibody 1D7, histidine-tagged (VHH, not shown: C-terminal histidine tag) VHH: QVQLVESGGGLVQPGGSLRLSCAASGRAFLTYAMGWFRQAPGKEREFVAAISWSGSSTYYADSVKGRFTISRDNAKNMVYLQMNSLKPEDTAVYYCAAKVSGATRDHLMTTYDYWGQGTQVTVSS
3. anti-PDL1 single-domain antibody 1D1, histidine-tagged (VHH, not shown: C-terminal histidine tag) VHH: QLQLVESGGGLVQAGGSLRLSCAASGGTFITYAMGWFRQAPGKDREFVAGISWSGSSTYYTDSVKGRFTISRDNAKNTVYLQMNSLKPGDTAVYYCAAKISGATREHLMTSYDYWGQGTQVTVSS
4. anti-PDL1 single-domain antibody 5A8, histidine-tagged (VHH, not shown: C-terminal histidine tag) VHH: QLQLVESGGGLVQPGGSLRLSCAASGGTFITYAMGWFRQAPGKDREFVAGISWSGSSTYYTDSVKGRFTISRDNAQNTVYLQMNSRKPGDTAVYYCAAKISGATREHLRTSYDYGGQGTQVTVSS

# output
[0.0505, 0.0551, 0.0452, 0.0436]
